All figures here come from the supplement of paper PMC4862054.

The following molecules are listed with their measured normalised viability values.
tested on: SK-BR-3; assay: normalised viability (% of control), CellTiter-Blue; higher = more viable cells (about 100 = DMSO control); details: 100 nM; incubation time: 72 h
Your answer is read as %, so omit the unit and give the number.

// worked examples, normalised viability included
1. CN1CCN(c2nc(C3=C(c4c[nH]c5ccccc45)C(=O)NC3=O)c3ccccc3n2)CC1 [Sotrastaurin]; 73
2. CC/C(=C(\c1ccccc1)c1ccc(OCCN(C)C)cc1)c1ccccc1 [Tamoxifen]; 90.7
3. C[C@@H]1C[C@H]2[C@@H]3CCC4=CC(=O)C=C[C@]4(C)[C@@]3(F)[C@@H](O)C[C@]2(C)[C@@]1(O)C(=O)CO [Dexamethasone]; 70.3

Next item in the queue.
The molecule C[C@@H](C(=O)O)c1ccc(-c2ccccc2)c(F)c1 [Tarenflurbil] , tested on SK-BR-3, showed normalised viability of 84.8
